Ref: ChEMBL document CHEMBL4052758

Species: Sus scrofa
assay name: Inhibition of porcine pancreatic lipase type 2 assessed as residual enzyme activity using tributyrin as substrate preincubated for 30 mins followed by substrate addition measured for 5 mins
value kind: XI50

Solved cases below.
{"test smiles": "O=C1S/C(=C\\c2cn(-c3ccccc3)nc2-c2ccc(F)cc2)C(=O)N1Cc1ccc([N+](=O)[O-])cc1", "XI50": 13}
{"test smiles": "O=C1NC(=O)/C(=C/c2cn(-c3ccccc3)nc2-c2ccc([N+](=O)[O-])cc2)S1", "XI50": 39.5}
{"test smiles": "O=C1S/C(=C\\c2cn(-c3ccccc3)nc2-c2ccccc2)C(=O)N1Cc1ccc([N+](=O)[O-])cc1", "XI50": 21.8}

[A] Cc1ccc(-c2nn(-c3ccccc3)cc2/C=C2\SC(=O)NC2=O)cc1
[B] O=C1NC(=O)/C(=C/c2cn(-c3ccccc3)nc2-c2ccccc2)S1
Data request: Pick one, A or B : lowest reported XI50. Indicate which entry you chose by stating its label.
Data returned: A
(A: 27.2, B: 65.1)

[I] Cc1ccc(-c2nn(-c3ccccc3)cc2/C=C2\SC(=O)N(Cc3ccc([N+](=O)[O-])cc3)C2=O)cc1
[II] CCCCCCCCCCC[C@@H](C[C@@H]1OC(=O)[C@H]1CCCCCC)OC(=O)[C@H](CC(C)C)NC=O
[III] O=C1S/C(=C\c2cn(-c3ccccc3)nc2-c2ccc(Cl)cc2)C(=O)N1Cc1ccc([N+](=O)[O-])cc1
Data request: Arrange the 3 compounds from largest to smallest XI50. Please list the labels in the order you were asked to rank them.
Data returned: I, III, II

----------
tgt: Pancreatic triacylglycerol lipase (Sus scrofa, UniProt P00591)
value kind: IC50 (µM)

Solved cases below.
{"test smiles": "O=C1S/C(=C\\c2cn(-c3ccccc3)nc2-c2ccc(Cl)cc2)C(=O)N1Cc1ccc([N+](=O)[O-])cc1", "value kind": "IC50", "test value": 4.81}
{"test smiles": "O=C1NC(=O)/C(=C/c2cn(-c3ccccc3)nc2-c2ccc(F)cc2)S1", "value kind": "IC50", "test value": 12.9}

[P] O=C1S/C(=C\c2cn(-c3ccccc3)nc2-c2ccccc2)C(=O)N1Cc1ccc([N+](=O)[O-])cc1
[Q] O=C1S/C(=C\c2cn(-c3ccccc3)nc2-c2ccc(F)cc2)C(=O)N1Cc1ccc([N+](=O)[O-])cc1
[R] O=C1NC(=O)/C(=C/c2cn(-c3ccccc3)nc2-c2ccccc2)S1
Data request: Hey, quick one: sort these by IC50, low to high? Please list the labels in the order you were asked to rank them.
Data returned: Q, P, R
(Q: 5.42 µM, P: 12.5 µM, R: 18.8 µM)

----------
tgt: Pancreatic triacylglycerol lipase (Sus scrofa, UniProt P00591)
Sequence (P00591 whole entry): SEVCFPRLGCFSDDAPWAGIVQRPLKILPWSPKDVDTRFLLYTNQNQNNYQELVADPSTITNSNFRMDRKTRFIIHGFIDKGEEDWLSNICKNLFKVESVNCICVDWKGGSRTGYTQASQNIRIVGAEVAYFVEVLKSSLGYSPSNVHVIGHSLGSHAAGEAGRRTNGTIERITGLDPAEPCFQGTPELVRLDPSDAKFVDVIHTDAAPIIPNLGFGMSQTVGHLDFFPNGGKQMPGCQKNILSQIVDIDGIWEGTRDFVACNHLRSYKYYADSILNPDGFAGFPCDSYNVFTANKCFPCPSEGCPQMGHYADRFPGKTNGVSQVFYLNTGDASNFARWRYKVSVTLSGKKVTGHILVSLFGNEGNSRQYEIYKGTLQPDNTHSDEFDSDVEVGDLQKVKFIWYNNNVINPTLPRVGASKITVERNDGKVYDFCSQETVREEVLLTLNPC
value kind: pKi
# pKi is unitless: minus log10 of the molar concentration; print number only

Reported pKi of O=C1S/C(=C\c2cn(-c3ccccc3)nc2-c2ccc(Cl)cc2)C(=O)N1Cc1ccc([N+](=O)[O-])cc1 : 4.84

----------
Organism: Sus scrofa
assay name: Inhibition of porcine pancreatic lipase type 2 assessed as residual enzyme activity using tributyrin as substrate preincubated for 30 mins followed by substrate addition measured for 5 mins
value kind: XI50

{"test smiles": "COc1ccc(-c2nn(-c3ccccc3)cc2/C=C2\\SC(=O)N(Cc3ccc([N+](=O)[O-])cc3)C2=O)cc1", "XI50": 18.1}
{"test smiles": "O=C1NC(=O)/C(=C/c2cn(-c3ccccc3)nc2-c2ccc(F)cc2)S1", "XI50": 25.4}
{"test smiles": "COc1ccc(-c2nn(-c3ccccc3)cc2/C=C2\\SC(=O)NC2=O)cc1", "XI50": 24.4}
{"test smiles": "O=C1NC(=O)/C(=C/c2cn(-c3ccccc3)nc2-c2ccc(Cl)cc2)S1", "XI50": 19.3}
{"test smiles": "O=C1S/C(=C\\c2cn(-c3ccccc3)nc2-c2ccc([N+](=O)[O-])cc2)C(=O)N1Cc1ccc([N+](=O)[O-])cc1", "XI50": 18.7}
